# Kd per record follows
Target Of Assay: T1, hVISTA-ECD 6-His tag (human, UniProt Q9H7M9 33-193)
T1 construct: also called monovalent hVISTA-ECD; human VISTA
T1 sequence (Q9H7M9 other isoform, or with tags, fused parts or gaps limits assumed): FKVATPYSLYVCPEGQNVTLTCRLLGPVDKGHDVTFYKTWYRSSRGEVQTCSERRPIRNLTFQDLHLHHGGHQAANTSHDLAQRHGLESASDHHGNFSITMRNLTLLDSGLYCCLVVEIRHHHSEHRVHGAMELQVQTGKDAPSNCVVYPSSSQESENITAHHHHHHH
Protocol: SPR 37 C, Ab on Protein A, pH 7.4
State just the number; it will be interpreted in nM.

Known Kd results, listed for orientation:
{"Binder": "P1-077857 (P1-068744 E31S E100S) (antibody, V domains shown) VH: QVQLVESGGGVVQPGRSLRLSCAASGFTFSSYAMHWVRQAPGKGLEWVAHIWYDGSNKYEADSVKGRFTISRDNSKNTLYLQMNSLRAEDTAVYYCARDSGFYSSYYFDEWGQGTLVTVSS VL: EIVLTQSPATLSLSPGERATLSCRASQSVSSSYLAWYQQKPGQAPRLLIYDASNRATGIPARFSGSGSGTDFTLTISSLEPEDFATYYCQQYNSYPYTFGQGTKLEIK", "Result Number": 520}
{"Binder": "P1-077863 (P1-068744 E59Y E102Y) (antibody, V domains shown) VH: QVQLVESGGGVVQPGRSLRLSCAASGFTFSEYAMHWVRQAPGKGLEWVAHIWYDGSNKYYADSVKGRFTISRDNSKNTLYLQMNSLRAEDTAVYYCARDSGFYESYYFDYWGQGTLVTVSS VL: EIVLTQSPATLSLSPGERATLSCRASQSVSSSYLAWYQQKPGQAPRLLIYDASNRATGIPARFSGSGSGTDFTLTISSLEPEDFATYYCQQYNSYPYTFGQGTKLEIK", "Result Number": 1100}

Let us examine a further case.
query: Which value of Kd has been reported for P1-077843 (P1-068744 E102Y) (antibody, V domains shown) VH: QVQLVESGGGVVQPGRSLRLSCAASGFTFSEYAMHWVRQAPGKGLEWVAHIWYDGSNKYEADSVKGRFTISRDNSKNTLYLQMNSLRAEDTAVYYCARDSGFYESYYFDYWGQGTLVTVSS VL: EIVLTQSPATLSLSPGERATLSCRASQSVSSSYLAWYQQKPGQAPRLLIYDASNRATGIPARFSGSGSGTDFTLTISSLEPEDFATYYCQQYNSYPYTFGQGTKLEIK in the records?
result: 2000
